Molecular target: T1, Human IL-23 (human, UniProt Q9NPF7 20-189; P29460 23-328)
T1 construct: Heterodimer of p40 and p19; For the crystal it was secreted from insect cells from a bi-cistronic construct; also called interleukin 23; human recombinant IL-23
T1 sequence (looked up) 1: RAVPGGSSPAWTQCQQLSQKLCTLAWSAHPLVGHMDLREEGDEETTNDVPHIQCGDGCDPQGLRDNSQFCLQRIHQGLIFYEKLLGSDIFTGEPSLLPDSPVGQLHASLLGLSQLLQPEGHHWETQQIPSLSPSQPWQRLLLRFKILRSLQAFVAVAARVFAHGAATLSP
T1 sequence (looked up) 2: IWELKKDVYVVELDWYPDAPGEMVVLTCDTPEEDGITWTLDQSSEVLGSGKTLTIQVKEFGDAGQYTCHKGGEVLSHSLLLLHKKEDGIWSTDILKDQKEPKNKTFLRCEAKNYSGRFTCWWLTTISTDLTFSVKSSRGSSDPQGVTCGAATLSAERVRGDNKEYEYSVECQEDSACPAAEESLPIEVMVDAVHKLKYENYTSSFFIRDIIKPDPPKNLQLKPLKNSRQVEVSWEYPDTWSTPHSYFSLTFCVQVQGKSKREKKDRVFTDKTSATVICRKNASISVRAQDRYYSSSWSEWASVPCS
Experiment: SPR (Biacore T100), Adnectin captured by anti-His mAb, IL-23 injected, 25 C
RESULT TYPE: pKd
Reminder that pKd means the negative base-10 logarithm of the concentration expressed in mol/L.

Below, 3 binders whose answers are already recorded.
# BINDER, pKd
rows = [
    ("Anti-IL-23 Adnectin 1454E09 (designed binder, 10Fn3-based Adnectin expressed in E. coli followed by a HIS6 tag; Fn3 domain is positions 3-96 of the entry) MGVSDVPRDLEVVAATPTSLLISWMHDYPYRRYYRITYGETGGNSPVQEFTVPMEEDTATISGLKPGVDYTITVYAVTSSYKYDMQYSPISINYRTEIDKPSQHHHHHH", 8.00),
    ("Anti-IL-23 Adnectin 1454F07 (designed binder, 10Fn3-based Adnectin expressed in E. coli followed by a HIS6 tag; Fn3 domain is positions 3-96 of the entry) MGVSDVPRDLEVVAATPTSLLISWYHMYSYRRYYRITYGETGGNSPVQEFTVPRDVDTATISGLKPGVDYTITVYAVTSSYKYDMQYSPISINYRTEIDKPSQHHHHHH", 8.03),
    ("Anti-IL-23 Adnectin 1454F09 (designed binder, 10Fn3-based Adnectin expressed in E. coli followed by a HIS6 tag; Fn3 domain is positions 3-96 of the entry) MGVSDVPRDLEVVAATPTSLLISWDHNYSYRRYYRITYGETGGNSPVQEFTVPRHTDTATISGLKPGVDYTITVYAVTSSYKYDMQYSPISINYRTEIDKPSQHHHHHH", 8.13),
]

# input for lookup
Request: pKd lookup needed for Anti-IL-23 Adnectin 1454D02 (designed binder, 10Fn3-based Adnectin expressed in E. coli followed by a HIS6 tag (captured by anti-His mAb in SPR)) MGVSDVPRDLEVVAATPTSLLISWDHDYPYRRYYRITYGETGGNSPVQEFTVPRNINTATISGLKPGVDYTITVYAVTSSYKYDMQYSPISINYRTEIDKPSQHHHHHH , thanks.
Response: 8.02
